The following molecules are listed with their measured Ki values.
# Study system: 5-HT2A receptor (Rattus norvegicus)
# Construct: Brains were rapidly removed and placed on ice; from tissue; host or cells: Sprague–Dawley rat frontal cortex membranes
# Sequence (P14842 whole entry): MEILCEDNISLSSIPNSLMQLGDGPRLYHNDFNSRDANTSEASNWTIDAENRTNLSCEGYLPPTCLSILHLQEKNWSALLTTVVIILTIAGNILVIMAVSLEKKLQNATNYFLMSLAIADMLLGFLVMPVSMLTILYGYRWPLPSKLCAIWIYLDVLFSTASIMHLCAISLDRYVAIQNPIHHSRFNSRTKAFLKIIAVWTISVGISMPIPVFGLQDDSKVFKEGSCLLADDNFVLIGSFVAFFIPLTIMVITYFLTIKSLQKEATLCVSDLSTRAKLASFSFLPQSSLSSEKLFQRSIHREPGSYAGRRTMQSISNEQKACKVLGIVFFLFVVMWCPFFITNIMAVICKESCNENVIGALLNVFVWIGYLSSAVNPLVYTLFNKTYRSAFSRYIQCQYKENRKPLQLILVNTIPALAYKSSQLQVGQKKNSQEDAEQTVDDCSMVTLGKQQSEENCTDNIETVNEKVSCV
# Assay details: Competitive 5-HT2A binding assay with [3H]ketanserin, rat frontal cortex membranes
# Details: 1 nM [3H]ketanserin, ± SEM, read-out: 5-HT2A Affinity pKi (converted)
Measurement type: Ki

> print(dat)
                                        mol  measurement.type  value.measured
1  CC(=O)c1cc2c(C)cc(=O)oc2cc1OCCCCN1CCN(c2ccc([N+](=O)[O-])cc2)CC1                Ki         1550 nM
2  COc1cccc(N2CCN(CCCCOc3cc4oc(=O)cc(C)c4cc3C(C)=O)CC2)c1                Ki         1170 nM
3  CC(=O)c1cc2c(C)cc(=O)oc2cc1OCCCCN1CCN(c2cc(C)cc(C)c2)CC1                Ki          513 nM
4  CC(=O)c1cc2c(C)cc(=O)oc2cc1OCCCCN1CCN(c2cc(C)ccc2C)CC1                Ki         3980 nM
5  CC(=O)c1cc2c(C)cc(=O)oc2cc1OCCCCN1CCN(c2cccc(Cl)c2Cl)CC1                Ki         1230 nM
